This collection of values is drawn from the EternaBench riboswitch data.

# maps each entry to its apparent Kd
- Tested on: MS2 coat protein
- TEST: apparent Kd, MS2 coat protein; higher = weaker binding; RNA-MaP array; FMN 200 µM where present
- COND: designed as: ON switch for flavin mononucleotide; no ligand

# MONOMER SEQUENCE, apparent Kd (nM)
data = [
    ("GUGCGAGCCACAGGAUAUCUACAAAUUUACUGUAGAGAAGGGUGACCUCGUGCACCACAUGAGGAUCACCCAUGUAACUAGGCG", 26.3),
    ("ACAUGAGGAUCACCCAUGUCUUUAUCCGAUUCUUCAUUUACGUAGGAUAUCGUCUAUACUAUCAUCGAGAAGGACGUUCUUUAA", 17.6),
    ("GCAAAGCCUGACAUGAGGAUCACCCAUGUUAGAUUGUUAUGUCAGGAUAUUGUCUAGCAACUAGACAAGAAGGGAUGCUUUGCC", 603),
    ("GGCCAAGUCGAGAAGGCCGGUAGACAUGAGGAUCACCCAUGUAGUGCGUGGAGGAUAUUGAAUGGGUGGCGUAGGACCUGCGUU", 106),
    ("UGCGAACAGGCUAACAUGAGGAUCACCCAUGUGGACUCAUGGUAGGAUAUCGGGAAGGAGGAAACCGAGAAGGGCCGGUGAGCA", 133),
    ("CUGCCUACAUGAGGAUCACCCAUGUCUGGCGAAAGAGUUCAGUAGGAUAUGAGAUUGGGUAAUCAUCAGAAGGGCUGGCAAAAG", 37.5),
    ("UGAGUAGCGAAACAAUGCACAUGAGGAUCACCCAUGUCUACACAGGAUAUGCGACGCUCCAGUUAGCAGAAGGGUGAACUCAAA", 40.2),
]
